Numbers sourced from PubChem BioAssay (NCI).

Tested on: SK-MEL-2 melanoma
Assay: NCI-60 one-dose screen, 48 h (100 = growth as untreated, 0 = no growth, -100 = all killed)
Conditions: 10 µM unless noted
Compounds without any hit were thinned out: in the full panel of roughly 83,000, 20% have a hit. Calls of active or inactive are those of the source. How the source made its calls: active means growth percent below 10; inactive means the rest.
recorded.endpoint: growth

In the examples that follow, each entry is paired with its recorded growth.
{"compound": "Cc1ccc(C)c(CCO)c1", "growth": "134% (inactive)"}
{"compound": "CC(=O)/C(C)=N\\OC(=O)Nc1ccccc1", "growth": "107% (inactive)"}
{"compound": "O=C(OCc1ccccc1)n1nnc2ccccc21", "growth": "108% (inactive)"}
{"compound": "CCOC(=O)/C(C)=C\\c1ccc(OC)c(OC)c1", "growth": "112% (inactive)"}
{"compound": "O=C(NCc1ccccc1)c1cccc([N+](=O)[O-])c1", "growth": "104% (inactive)"}
{"compound": "Cc1[nH]c(=S)[nH]c(=O)c1C", "growth": "107% (inactive)"}
{"compound": "COC(=O)c1ccc([N+](=O)[O-])c(C)c1", "growth": "116% (inactive)"}
{"compound": "O=C(Nc1c(Cl)cc(Cl)cc1Cl)ON=C1CCCCC1", "growth": "107% (inactive)"}

Request: Item COC1OC(C(COC(C)=O)OC(C)=O)C(OC(C)=O)C(OC(C)=O)C1OC(C)=O (centres undefined) has what recorded growth?
Result: 113% (inactive)

Request: # get_value(readout='growth', item= COc1cccc(N=CNc2cccc(OC)c2)c1 )
Result: 86.3% (inactive)

Request: What growth value was documented for this compound, C=CCc1cc(OC)c(OC)c(OC)c1 ?
Result: 108% (inactive)

Request: Can you share its growth? I mean this compound: O=Cc1ccc(F)cc1
Result: 129% (inactive)

Request: Using the record for CCC(=O)Oc1ccc2ccccc2c1 , report its growth.
Result: 95.2% (inactive)

====

Test system: MOLT-4 leukemia
Experiment: NCI-60 one-dose screen, 48 h (100 = growth as untreated, 0 = no growth, -100 = all killed)
Settings: 10 µM unless noted
Compounds without any hit were thinned out: in the full panel of roughly 83,000, 20% have a hit.
Measured growth of individual entries
Numbers only here, please. The scale is %.

Consider the worked cases shown below.
{"compound": "CSc1cnc2ccccc2n1", "growth / %": 107}
{"compound": "CCOC(=O)CNC", "growth / %": 103}
{"compound": "CC(=O)NNC(=S)N/C=C/c1c(C)ccc([N+](=O)[O-])c1[N+](=O)[O-]", "growth / %": 95.5}
{"compound": "CCCc1cccc(CCC)c1NC(=O)Nc1cc(Cl)cc(Cl)c1", "growth / %": 101}
{"compound": "O=Cc1ccc(Cl)c(Cl)c1", "growth / %": 106}

Request: Field request: growth | item: COCC(N)=O
Result: 98.5

Request: Endpoint output: growth of CC1(C)CC(=O)C=C(N)C1 . Value?
Result: 59.5

Request: Item CCOC(=O)c1ccc(NC(=O)Nc2nccs2)cc1 has what recorded growth?
Result: -2.7

Request: Bench note: what growth did CCCCCCCCCCCCCCCCCCSC(=N)N show?
Result: 26.2

Request: Could you tell me which growth is on file for Oc1cc2ccccc2c(-c2c(O)c(O)cc3ccccc23)c1O ?
Result: 30.6

====

Test system: HS 578T breast
Experiment: NCI-60 one-dose screen, 48 h (100 = growth as untreated, 0 = no growth, -100 = all killed)
Conditions: 10 µM unless noted
Description: Growth inhibition of the HS 578T human tumor cell line is measured as a screen for anti-cancer activity. Cells are grown in 96 well plates and exposed to the test compound for 48 hours. Compounds are tested at a single concentration, which is 10^-5 M for most compounds. The reported endpoint is percent growth (GI% or GIPRCNT), where numbers from 0 - 100% represent growth inhibition, and numbers from -100% - 0 represent cell death. For example, a value of 40 represents 60% growth inhibition. […]
The panel holds about 83,000 compounds, 20% with a hit somewhere; the sample as a whole holds those more often. The source made the active and inactive calls. Rule for the calls: active = growth percent below 10; inactive = the rest.
recorded.endpoint: growth

Consider the reported growth for these compounds:
{"compound": "CCOC(=O)/C(C)=C\\c1ccc(OC)c(OC)c1", "tested.on": "HS 578T breast", "growth": "108% (inactive)"}
{"compound": "Cc1[nH]c(=S)[nH]c(=O)c1C", "tested.on": "HS 578T breast", "growth": "123% (inactive)"}
{"compound": "CCN1CCCC(N2c3ccccc3Sc3ccccc32)C1 (stereo not given)", "tested.on": "HS 578T breast", "growth": "99.6% (inactive)"}
{"compound": "CC1(C)CCC(C)(C)NC(=S)N1", "tested.on": "HS 578T breast", "growth": "109% (inactive)"}
{"compound": "Cc1cc(C(=O)NN)c(C#N)c(=O)[nH]1", "tested.on": "HS 578T breast", "growth": "121% (inactive)"}

Request: # input compound: CCOP(=O)(NC(c1ccccc1)c1ccccc1)OCC ; wanted: its growth
Result: 107% (inactive)

Request: Item under review: CN=S(=O)(OCCCCCOS(=O)(=NC)c1ccc(C)cc1)c1ccc(C)cc1 (stereo not given) . Reported growth?
Result: 90.1% (inactive)

Request: Form field: reported growth of CC(=O)NCNC(C)=O
Result: 111% (inactive)

Request: Would you kindly share the measured growth for C[C@H](CCC[C@H](C)OS(=O)(=O)c1ccccc1)OS(=O)(=O)c1ccccc1 ?
Result: 105% (inactive)

Request: Please look up its growth: Cc1ccc(NCN2C(=O)c3ccccc3C2=O)c(C)n1
Result: 110% (inactive)

Request: Recorded growth of Cc1ccc(/C=N/NC(N)=S)s1 , please.
Result: 106% (inactive)

Request: Dear colleague, I am looking for the recorded growth of the following compound: COC1CC(OC(=O)c2ccc([N+](=O)[O-])cc2)C(COC(=O)c2ccc([N+](=O)[O-])cc2)O1 (stereo not given)
Result: 109% (inactive)

====

Tested on: RPMI-8226 leukemia
Assay: NCI-60 one-dose screen, 48 h (100 = growth as untreated, 0 = no growth, -100 = all killed)
Conditions: 10 µM unless noted
Compounds without any hit were thinned out: in the full panel of roughly 83,000, 20% have a hit.
recorded.endpoint: growth (%)
Expressed in %, but write only the number.

Below are worked cases with known answers.
{"compound": "ClCC(Cl)C1CCC(Cl)C(Cl)C1 (stereo unspecified)", "unit.abbreviation": "%", "quantitative.result": 100}
{"compound": "Cc1cc2nc(C)c(C)nc2cc1C", "unit.abbreviation": "%", "quantitative.result": 89.5}
{"compound": "COc1ccc(-c2csc(NC(=O)Nc3nc(-c4ccc(OC)cc4)cs3)n2)cc1", "unit.abbreviation": "%", "quantitative.result": 69.5}

Request: Which growth reading was recorded for the compound Cc1ccc(C(C)C)c(OCC(=O)O)c1 ?
Result: 107

Request: Returns the measured growth for the input compound. Input: S=CN1CCCCC1
Result: 110

Request: Need growth, item Clc1ccc(/C=C/c2ccccn2)cc1
Result: 45.5

====

As shown below, each of these compounds has a reported growth value.
System: MDA-MB-435 melanoma
Test: NCI-60 one-dose screen, 48 h (100 = growth as untreated, 0 = no growth, -100 = all killed)
Settings: 10 µM unless noted
About 83,000 compounds went through this panel and 20% of them were active in at least one assay; those are over-represented in the sample as a whole.
Could you give me the number in %? Just the number is fine.

Worked examples follow.
{"compound": "CC(C)c1ccccc1NC(=O)N1CCC(C(C)C)CC1", "growth, %": 91.9}
{"compound": "CCC(=O)C1C(=O)c2ccccc2C1=O", "growth, %": 104}
{"compound": "CCCCCCCCNC(=O)C(C)C", "growth, %": 102}
{"compound": "CCOC(=O)c1c[nH][nH]c1=O", "growth, %": 104}
{"compound": "CC(C)=CCC[C@@H](C)[C@H]1CC[C@@]2(C)C3=C(CC[C@]12C)[C@@]1(C)CC[C@H](O)C(C)(C)[C@@H]1CC3", "growth, %": 101}
{"compound": "Cc1ccc(C2CCCCC2)cc1Br", "growth, %": 100}

Request: So what growth did CCC(C)c1c(N)n(S(=O)(=O)c2ccc(C)cc2)oc1=O (stereo not given) get with MDA-MB-435 melanoma?
Result: 107

Request: Give recorded growth with MDA-MB-435 melanoma for the following compound: c1ccc(Nc2ccccn2)nc1
Result: 104

Request: Give the reported growth for CN1CCN(C(=S)S)CC1 (system: MDA-MB-435 melanoma).
Result: 109

Request: Which measured growth belongs to OCC1CCC(O)C(CO)N1 (stereo not given) , tested on MDA-MB-435 melanoma?
Result: 102

Request: I'm curious: which growth was measured for Cc1nc(O)cc(=O)[nH]1 tested on MDA-MB-435 melanoma?
Result: 126

Request: Checklist item: growth tested on MDA-MB-435 melanoma, entry C=CCOc1ccc(Cl)cc1Cl , value?
Result: 102

Request: Write down the reported growth of CCC(=O)Oc1c(C)cc(O)c2ccccc12 , test system: MDA-MB-435 melanoma.
Result: 95.7
